Target: recombinant human pancreatic GLK (Homo sapiens)
Sequence (P35557 1-465): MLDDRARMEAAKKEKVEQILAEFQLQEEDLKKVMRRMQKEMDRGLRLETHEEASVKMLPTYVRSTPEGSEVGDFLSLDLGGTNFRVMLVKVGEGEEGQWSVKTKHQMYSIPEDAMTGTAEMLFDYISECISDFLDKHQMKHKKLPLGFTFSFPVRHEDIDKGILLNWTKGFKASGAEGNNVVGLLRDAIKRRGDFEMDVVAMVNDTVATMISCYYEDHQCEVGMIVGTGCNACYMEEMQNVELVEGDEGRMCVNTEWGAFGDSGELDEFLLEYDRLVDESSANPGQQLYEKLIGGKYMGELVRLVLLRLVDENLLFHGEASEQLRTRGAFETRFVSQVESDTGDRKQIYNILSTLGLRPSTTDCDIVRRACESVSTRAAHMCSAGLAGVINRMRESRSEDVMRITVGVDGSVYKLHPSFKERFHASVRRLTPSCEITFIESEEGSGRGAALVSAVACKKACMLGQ
Assay: biochemical
Reported values of log10(EC50) for individual entries
measured quantity: log10(EC50) (log10 of the value in nM)

molecule | measured quantity | value
C[C@H](CO)OC[C@H](Oc1ncnc2c1cnn2-c1ccccc1Cl)C(=O)Nc1ccc(C#N)cn1 | log10(EC50) | 2.65
Cc1cc(NC(=O)C(COC(C)C)Oc2ncnc3c2cnn3-c2ccccc2Cl)no1 (centres unmarked) | log10(EC50) | 3.00
C[C@H](CO)OC[C@H](Oc1ncnc2c1cnn2-c1c(Cl)cccc1C#N)C(=O)Nc1ccc(Cl)cn1 | log10(EC50) | 2.21
Cc1ccc(NC(=O)[C@H](Oc2ncnc3c2cnn3-c2ccccc2Cl)C(C)C)nc1 | log10(EC50) | 3.98
N#Cc1ccc(NC(=O)[C@H](COCCO)Oc2ncnc3c2cnn3-c2c(Cl)cccc2Cl)nc1 | log10(EC50) | 2.60
Cc1cnc(NC(=O)[C@H](COC2CCC2)Oc2ncnc3c2cnn3-c2ncccc2C)cn1 | log10(EC50) | 2.53
COC[C@H](Oc1ncnc2c1cnn2-c1ccccc1Cl)C(=O)Nc1ccc(C)cn1 [Example 3] | log10(EC50) | 2.23
Cc1cnc(NC(=O)[C@H](COC(C)C)Oc2ncnc3c2cnn3-c2ncccc2Cl)cn1 | log10(EC50) | 2.62

###

Reported values of pEC50 for individual entries
Biological target: recombinant human pancreatic GLK (Homo sapiens)
Assay: biochemical
pEC50: −log10 of the molar value.

compound | pEC50
Cc1ccc(C#N)cc1-n1ncc2c(O[C@@H](COCCO)C(=O)Nc3ccc(Cl)cn3)ncnc21 | 5.43
CC(C)OC[C@H](Oc1ncnc2c1cnn2-c1ccccc1Cl)C(=O)Nc1ccc(C#N)cn1 [Example 113a] | 6.52
CC(C)OCC(Oc1ncnc2c1cnn2-c1ccccc1Cl)C(=O)Nc1ccncn1 (centres unmarked) | 6.27
Cc1ccc(NC(=O)[C@H](CCO)Oc2ncnc3c2cnn3-c2ccccc2Cl)nc1 | 6.64
CCOC[C@H](Oc1ncnc2c1cnn2-c1ncccc1C)C(=O)Nc1ccc(Cl)cn1 [Example 128a] | 6.21
COCCC(Oc1ncnc2c1cnn2-c1cccc(C)c1)C(=O)Nc1ccc(C)cn1 (centres unmarked) | 6.46
N#Cc1cccc(Cl)c1-n1ncc2c(O[C@@H](COCCO)C(=O)Nc3ccc(F)cn3)ncnc21 | 6.33
O=C(Nc1ccc(F)cn1)[C@H](CN1CC(O)C1)Oc1ncnc2c1cnn2-c1c(F)cccc1Cl | 6.96

Measured values drawn from patent US8143263B2 for this set.
